solubility kinetic reference
- CONDITION NOTES: buffer; pH 7.4; 200.0 µM
REPORTED ENDPOINT: solubility kinetic

{"MOLECULE": "O=c1[nH]c(-c2cccnc2)nc2sc(-c3ccccc3)cc12", "REPORTED ENDPOINT": "solubility kinetic", "DATA VALUE": "0.2 µg/mL"}
{"MOLECULE": "COc1ccc(OCCC(=O)Nc2ccccc2)cc1", "REPORTED ENDPOINT": "solubility kinetic", "DATA VALUE": "> 40.7 µg/mL"}
{"MOLECULE": "COc1ccc(NC(=O)CSc2nc3nc(C)cc(C)c3c(=O)[nH]2)cc1OC", "REPORTED ENDPOINT": "solubility kinetic", "DATA VALUE": "6.5 µg/mL"}
{"MOLECULE": "CCOc1ccc2nc(NC(=O)C3CCCO3)sc2c1 (stereo not given)", "REPORTED ENDPOINT": "solubility kinetic", "DATA VALUE": "> 43.9 µg/mL"}
{"MOLECULE": "O=C(Nc1ccc(N2CCCC2)cc1)c1cccc(Cl)c1Cl", "REPORTED ENDPOINT": "solubility kinetic", "DATA VALUE": "< 0.4 µg/mL"}
{"MOLECULE": "CC1(C)C2CCC1(C)C(NC(=O)/C=C/c1ccccc1)C2 (stereo not given)", "REPORTED ENDPOINT": "solubility kinetic", "DATA VALUE": "8.9 µg/mL"}
{"MOLECULE": "CCCCCN1C(C)=CC(=C(C#N)C#N)C=C1C", "REPORTED ENDPOINT": "solubility kinetic", "DATA VALUE": "3.3 µg/mL"}
{"MOLECULE": "COc1ccccc1/C=C/c1nc2ccc(OC(C)=O)cc2c(=O)o1", "REPORTED ENDPOINT": "solubility kinetic", "DATA VALUE": "< 0.7 µg/mL"}
{"MOLECULE": "CCOC(=O)CCNC(=O)CCNC(=O)C(c1ccccc1)c1ccccc1", "REPORTED ENDPOINT": "solubility kinetic", "DATA VALUE": "> 57.4 µg/mL"}
{"MOLECULE": "CCN(CC)S(=O)(=O)c1ccc(C(=O)Nc2cc(S(=O)(=O)N3CCOCC3)ccc2O)cc1", "REPORTED ENDPOINT": "solubility kinetic", "DATA VALUE": "12.2 µg/mL"}
{"MOLECULE": "COc1ccc(N2CCOCC2)c(NC(=O)c2cc3ccccc3o2)c1", "REPORTED ENDPOINT": "solubility kinetic", "DATA VALUE": "< 0.4 µg/mL"}
{"MOLECULE": "O=C(COC(=O)CCC(=O)N1CCOCC1)Nc1ccc(Br)cc1Br", "REPORTED ENDPOINT": "solubility kinetic", "DATA VALUE": "> 71.7 µg/mL"}
{"MOLECULE": "O=C1Nc2ccccc2Nc2ccccc21", "REPORTED ENDPOINT": "solubility kinetic", "DATA VALUE": "20.9 µg/mL"}
{"MOLECULE": "Cc1c(C)n(Cc2ccccc2)c2ncnc(NCCCO)c12", "REPORTED ENDPOINT": "solubility kinetic", "DATA VALUE": "< 0.2 µg/mL"}
{"MOLECULE": "COC(=O)c1cnc(SCC(=O)c2ccccc2)n1C", "REPORTED ENDPOINT": "solubility kinetic", "DATA VALUE": "> 43.6 µg/mL"}
{"MOLECULE": "O=C(Nc1cccc2c1CCCC2)c1cccc(F)c1", "REPORTED ENDPOINT": "solubility kinetic", "DATA VALUE": "< 0.6 µg/mL"}
{"MOLECULE": "COC(OC)c1ccnc(-c2ccc(OC(C)=O)cc2)n1", "REPORTED ENDPOINT": "solubility kinetic", "DATA VALUE": "> 43.2 µg/mL"}
{"MOLECULE": "COc1ccc(Cl)cc1N1C(=O)c2cccnc2C1=O", "REPORTED ENDPOINT": "solubility kinetic", "DATA VALUE": "> 43.3 µg/mL"}
{"MOLECULE": "CCOc1ccccc1NC(=O)NC1CCCc2ccccc21 (stereo not given)", "REPORTED ENDPOINT": "solubility kinetic", "DATA VALUE": "0.5 µg/mL"}
{"MOLECULE": "O=C(NC1CCCCC1)Oc1cc2oc(=O)sc2cc1Br", "REPORTED ENDPOINT": "solubility kinetic", "DATA VALUE": "10.2 µg/mL"}
{"MOLECULE": "COc1ccc(CN(C)CC(=O)Nc2cccc(S(=O)(=O)N3CCCC3)c2)cc1F", "REPORTED ENDPOINT": "solubility kinetic", "DATA VALUE": "44 µg/mL"}
{"MOLECULE": "S=C(NCc1cccnc1)Nc1ccc2c(c1)OCO2", "REPORTED ENDPOINT": "solubility kinetic", "DATA VALUE": "> 43.1 µg/mL"}
{"MOLECULE": "Cc1cc(C)nc(Nc2nc3ccccc3o2)n1", "REPORTED ENDPOINT": "solubility kinetic", "DATA VALUE": "> 36 µg/mL"}
{"MOLECULE": "COc1ccc2c(c1OC)C(=O)N1C2SC[C@H]1C(=O)NC1CC1 (stereo not given in full)", "REPORTED ENDPOINT": "solubility kinetic", "DATA VALUE": "> 50.2 µg/mL"}
{"MOLECULE": "CCOc1ccccc1CNS(=O)(=O)c1cnc[nH]1", "REPORTED ENDPOINT": "solubility kinetic", "DATA VALUE": "> 42.2 µg/mL"}
